# MIC per entry
System: Saccharomyces cerevisiae
Assay: Antifungal activity against Beer yeast ATCC9763 after 24 hrs by two fold serial dilution method
Format: functional
Details: ATCC9763, 24 h
Give just the number in µM; leave the unit off.

Reference set (4 entries):
test_smiles=CCCCCCCn1c(CCCC)nc(Cl)c1/C=N/N1C(=O)c2cccc3c(N4CCOCC4)ccc(c23)C1=O measured_result=450
test_smiles=CCCCc1nc(Cl)c(/C=N/N2C(=O)c3cccc4c(N5CCOCC5)ccc(c34)C2=O)n1Cc1ccccc1F measured_result=440
test_smiles=CCCCc1nc(Cl)c(/C=N/N2C(=O)c3cccc4c(N5CCCC5)ccc(c34)C2=O)[nH]1 measured_result=570
test_smiles=OC(Cn1cncn1)(Cn1cncn1)c1ccc(F)cc1F measured_result=50

Request: Look up MIC for this compound: `CCCCCCCCn1c(CCCC)nc(Cl)c1/C=N/N1C(=O)c2cccc3c(N4CCOCC4)ccc(c23)C1=O`
Result: 880

###

Test system: Escherichia coli
Assay: Antibacterial activity against Escherichia coli JM109 after 24 hrs by two fold serial dilution method
Type: functional
Settings: JM109, 24 h
metric: MIC (µM)
State just the number; it will be interpreted in µM.

test_smiles=CCCCCCCCCCCCn1c(CCCC)nc(Cl)c1/C=N/N1C(=O)c2cccc3c(N4CCOCC4)ccc(c23)C1=O measured_result=10
test_smiles=CCCCc1nc(Cl)c(/C=N/N2C(=O)c3cccc4c(N5CCOCC5)ccc(c34)C2=O)n1Cc1ccc([N+](=O)[O-])cc1 measured_result=50

Request: Can you look up the measured MIC of `CCCCc1nc(Cl)c(/C=N/N2C(=O)c3cccc4c(N5CCOCC5)ccc(c34)C2=O)[nH]1` for me?
Result: 270

Request: Which MIC reading was recorded for the compound `CCCCc1nc(Cl)c(/C=N/N2C(=O)c3cccc4c(N5CCOCC5)ccc(c34)C2=O)n1Cc1cccc(F)c1` ?
Result: 440

###

Test system: Saccharomyces cerevisiae
Assay: Antifungal activity against Beer yeast ATCC9763 after 24 hrs by two fold serial dilution method
Format: functional
Settings: ATCC9763, 24 h
metric: MIC (µM)
Entry rule: numbers only, all in µM.

Request: Data request, read-out MIC, for `CCCCc1nc(Cl)c(/C=N/N2C(=O)c3cccc4c(N5CCOCC5)ccc(c34)C2=O)n1Cc1ccc(F)cc1`
Result: 890

Request: // lookup MIC for `CCCCc1nc(Cl)c(/C=N/N2C(=O)c3cccc4c(Br)ccc(c34)C2=O)[nH]1`
Result: 140

Request: Reported MIC, compound `CCCCc1nc(Cl)c(/C=N/N2C(=O)c3cccc4c(N5CCOCC5)ccc(c34)C2=O)n1Cc1cccc(Cl)c1` : ____
Result: 220

Request: Consider the compound `CCCCc1nc(Cl)c(/C=N/N2C(=O)c3cccc4c(N5CCOCC5)ccc(c34)C2=O)[nH]1` and give its measured MIC.
Result: 270

###

Tested on: Staphylococcus aureus
Assay: Antibacterial activity against Staphylococcus aureus ATCC25923 after 24 hrs by two fold serial dilution method
Assay type: functional
Settings: ATCC25923, 24 h
metric: MIC

Please review the following examples before continuing.
test_smiles=CCCCc1nc(Cl)c(/C=N/N2C(=O)c3cccc4c(Br)ccc(c34)C2=O)[nH]1 metric=MIC measured_result="1110 µM"
test_smiles=CCCCCCCn1c(CCCC)nc(Cl)c1/C=N/N1C(=O)c2cccc3c(N4CCOCC4)ccc(c23)C1=O metric=MIC measured_result="450 µM"
test_smiles=CCCCc1nc(Cl)c(/C=N/N2C(=O)c3cccc4c(N5CCOCC5)ccc(c34)C2=O)n1Cc1ccccc1Cl metric=MIC measured_result="870 µM"
test_smiles=CCCCc1nc(Cl)c(/C=N/N2C(=O)c3cccc4c(N5CCOCC5)ccc(c34)C2=O)n1Cc1cccc(Cl)c1 metric=MIC measured_result="430 µM"
test_smiles=CCCCCCCCn1c(CCCC)nc(Cl)c1/C=N/N1C(=O)c2cccc3c(N4CCOCC4)ccc(c23)C1=O metric=MIC measured_result="220 µM"
test_smiles=CCCCCCCCCCn1c(CCCC)nc(Cl)c1/C=N/N1C(=O)c2cccc3c(N4CCOCC4)ccc(c23)C1=O metric=MIC measured_result="420 µM"
test_smiles=CCCCc1nc(Cl)c(/C=N/N2C(=O)c3cccc4c(N5CCOCC5)ccc(c34)C2=O)n1Cc1ccc([N+](=O)[O-])cc1 metric=MIC measured_result="210 µM"

Now examine the next entry.
Request: For the compound shown here, `CCCCc1nc(Cl)c(/C=N/N2C(=O)c3cccc4c(N5CCOCC5)ccc(c34)C2=O)n1Cc1ccc(Cl)cc1` , give the reported MIC.
Result: 870 µM

###

Test system: Escherichia coli
Experiment: Antibacterial activity against Escherichia coli DH52 after 24 hrs by two fold serial dilution method
Format: functional
Conditions: DH52, 24 h
A collection of compounds and their measured MIC
Number only, in µM; omit the unit.

Completed entries (count: 5):
test_smiles=CCCCc1nc(Cl)c(/C=N/N2C(=O)c3cccc4c(N5CCOCC5)ccc(c34)C2=O)n1Cc1ccccc1Cl measured_on="Escherichia coli" metric=MIC measured_result=870
test_smiles=CCCCc1nc(Cl)c(/C=N/N2C(=O)c3cccc4c(N5CCCCC5)ccc(c34)C2=O)[nH]1 measured_on="Escherichia coli" metric=MIC measured_result=560
test_smiles=CCCCc1nc(Cl)c(/C=N/N2C(=O)c3cccc4c(N5CCOCC5)ccc(c34)C2=O)n1Cc1cccc(Cl)c1 measured_on="Escherichia coli" metric=MIC measured_result=430
test_smiles=CCCCc1nc(Cl)c(/C=N/N2C(=O)c3cccc4c(N5CCOCC5)ccc(c34)C2=O)n1Cc1ccc(Cl)cc1Cl measured_on="Escherichia coli" metric=MIC measured_result=740
test_smiles=CCCCc1nc(Cl)c(/C=N/N2C(=O)c3cccc4c(N5CCOCC5)ccc(c34)C2=O)n1Cc1ccc([N+](=O)[O-])cc1 measured_on="Escherichia coli" metric=MIC measured_result=420

Request: Missing value: MIC, Escherichia coli, entry `CCCCc1nc(Cl)c(/C=N/N2C(=O)c3cccc4c(N5CCOCC5)ccc(c34)C2=O)n1Cc1ccc(Cl)cc1` . Fill in?
Result: 430

Request: Give the reported MIC for `CCCCCCCn1c(CCCC)nc(Cl)c1/C=N/N1C(=O)c2cccc3c(N4CCOCC4)ccc(c23)C1=O` (system: Escherichia coli).
Result: 450

Request: # query: MIC | item `CCCCc1nc(Cl)c(/C=N/N2C(=O)c3cccc4c(N5CCOCC5)ccc(c34)C2=O)n1Cc1ccccc1F` | system: Escherichia coli
Result: 440

###

Tested on: Candida
Test: Antifungal activity against Candida mycoderma ATCC10231 after 24 hrs by two fold serial dilution method
Type: functional
Details: ATCC10231, 24 h
Cut-off 400 µM on MIC: below means true, at or above means false.

Here's what some known entries look like.
test_smiles=CCCCc1nc(Cl)c(/C=N/N2C(=O)c3cccc4c(N5CCOCC5)ccc(c34)C2=O)n1Cc1ccc(Cl)cc1Cl category_label=true
test_smiles=CCCCc1nc(Cl)c(/C=N/N2C(=O)c3cccc4c(N5CCOCC5)ccc(c34)C2=O)n1Cc1ccc([N+](=O)[O-])cc1 category_label=true

Request: Say whether its MIC is strictly beneath 400 µM. Entry: `CCCCc1nc(Cl)c(/C=N/N2C(=O)c3cccc4c(N5CCOCC5)ccc(c34)C2=O)n1Cc1ccc(F)cc1`
Result: false

Request: Quick check: does `CCCCc1nc(Cl)c(/C=N/N2C(=O)c3cccc4c(Br)ccc(c34)C2=O)[nH]1` have MIC under 400 µM?
Result: false

Request: Please determine if `CCCCc1nc(Cl)c(/C=N/N2C(=O)c3cccc4c(N5CCOCC5)ccc(c34)C2=O)n1Cc1ccc(OC)cc1` is below 400 µM in terms of MIC.
Result: false

###

System: Escherichia coli
Experiment: Antibacterial activity against Escherichia coli DH52 after 24 hrs by two fold serial dilution method
Type: functional
Conditions: DH52, 24 h
metric: MIC
Answer as a quantity: numeral, then unit.

Some solved cases for reference:
test_smiles=CCCCc1nc(Cl)c(/C=N/N2C(=O)c3cccc4c(N5CCOCC5)ccc(c34)C2=O)n1Cc1ccc(Cl)c(Cl)c1 measured_on="Escherichia coli" metric=MIC measured_result="180 µM"
test_smiles=CCCCCn1c(CCCC)nc(Cl)c1/C=N/N1C(=O)c2cccc3c(N4CCOCC4)ccc(c23)C1=O measured_on="Escherichia coli" metric=MIC measured_result="480 µM"
test_smiles=CCCCc1nc(Cl)c(/C=N/N2C(=O)c3cccc4c(N5CCOCC5)ccc(c34)C2=O)n1Cc1ccc(OC)cc1 measured_on="Escherichia coli" metric=MIC measured_result="440 µM"

Now for another entry.
Request: Please report the recorded MIC for `CCCCc1nc(Cl)c(/C=N/N2C(=O)c3cccc4c(N5CCOCC5)ccc(c34)C2=O)[nH]1` .
Result: 270 µM

###

Tested on: Staphylococcus aureus
Test: Antibacterial activity against Staphylococcus aureus ATCC25923 after 24 hrs by two fold serial dilution method
Type: functional
Conditions: ATCC25923, 24 h
metric: MIC

compound=CCCCc1nc(Cl)c(/C=N/N2C(=O)c3cccc4c(N5CCOCC5)ccc(c34)C2=O)n1Cc1ccccc1F metric=MIC measured_result="220 µM"

Please find the next compound below.
Request: Quick one: MIC of `CCCCc1nc(Cl)c(/C=N/N2C(=O)c3cccc4c(N5CCOCC5)ccc(c34)C2=O)n1Cc1ccc(Cl)c(Cl)c1` ?
Result: 740 µM
